- Test system: TAB109
- ASSAY_PROTOCOL: qHTS profiling for inhibitors of Plasmodium falciparum proliferation (AID 504749); also: nearly all actives have a fitted effect of over 60% in size
- STUDY_CONDITIONS: P. falciparum in erythrocytes, SYBR Green DNA, 72 h; series mostly up to 28.7 µM
Results filed as inconclusive are left out. Activity calls are given as the source filed them. Calls follow the shape of the dose curve; as a rule, active = well fitted inhibition curve with a large enough effect; inconclusive = small, poorly fitted or top-dose-only effect; inactive = flat fitted curve, though single readings scatter.
Select the matching outcome among Y = active, N = inactive

Field: outcome | Entry: "O=C(O)CO.[NH2-].[NH2-].[Pt+2]" N

Also need "COC(=O)C[C@](O)(CCCC(C)(C)O)C(=O)O[C@@H]1C(OC)=C[C@]23CCCN2CCc2cc4c(cc2[C@H]13)OCO4" , thanks. Y

Item: "Nc1ccn([C@@H]2CS[C@H](CO)O2)c(=O)n1" N

Consider next the compound "CC[C@H]1CN2CCc3cc(OC)c(OC)cc3[C@H]2C[C@@H]1C[C@@H]1NCCc2cc(OC)c(OC)cc21" in the same way. Y

====

- SUBJECT_OF_TEST: Cytochrome P450 2C9 (Homo sapiens) (UniProt P11712)
- Sequence (P11712 whole entry, looked up): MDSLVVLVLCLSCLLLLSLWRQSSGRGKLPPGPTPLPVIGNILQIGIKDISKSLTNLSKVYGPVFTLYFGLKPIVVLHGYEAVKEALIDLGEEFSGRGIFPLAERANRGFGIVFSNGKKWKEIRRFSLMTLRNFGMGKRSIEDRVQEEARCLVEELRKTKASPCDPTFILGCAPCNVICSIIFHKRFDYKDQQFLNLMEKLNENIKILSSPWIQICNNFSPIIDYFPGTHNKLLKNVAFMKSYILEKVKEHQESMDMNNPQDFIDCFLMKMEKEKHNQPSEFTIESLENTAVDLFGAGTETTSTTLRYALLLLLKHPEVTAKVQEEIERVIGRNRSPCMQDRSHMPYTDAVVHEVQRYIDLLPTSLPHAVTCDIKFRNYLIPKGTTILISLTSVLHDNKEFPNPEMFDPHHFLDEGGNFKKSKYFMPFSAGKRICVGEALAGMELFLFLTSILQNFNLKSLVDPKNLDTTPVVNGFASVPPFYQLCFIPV
- ASSAY_PROTOCOL: Cytochrome P450 family 2 subfamily C member 9 (CYP2C9) small molecule antagonists: luciferase biochemical (cell-free) qHTS assay (AID 1645842); also: nearly all actives have a fitted effect of over 55% in size; also: potency is read from the fitted curve at half-maximal effect
- STUDY_CONDITIONS: P450-Glo CYP2C9 enzyme assay, luciferin luminescence; series mostly up to 57.4 µM
Inconclusive results are not listed. The source made the active and inactive calls. Calls come from the whole dose curve; as a rule, active = well fitted inhibition curve with a large enough effect in the repeat runs; inconclusive = weak or mixed curves; inactive = no such curve, though single readings can be large or run the other way.
PROPERTY_LABEL: Potency

* COc1cc(-c2nn(C3CCC(N4CCN(C(C)=O)CC4)CC3)c3ncnc(N)c23)ccc1NC(=O)c1cc2ccccc2n1C (centres undefined) | 3.01 µM (active)
* CN(C)Cc1c(C(=O)NCCOc2ccc(C(=O)NO)cc2)oc2ccccc12 | inactive
* Nc1ncnc2c1c(-c1cccc(OCc3ccccc3)c1)cn2C1CC(CN2CCCC2)C1 (centres undefined) | 16.9 µM (active)
* O=C(Nc1cn[nH]c1-c1nc2ccc(CN3CCOCC3)cc2[nH]1)NC1CC1 | inactive
* COc1ccc(CC2c3cc(OC)c(OC)cc3CC[N+]2(C)CCC(=O)OCCCCCOC(=O)CC[N+]2(C)CCc3cc(OC)c(OC)cc3C2Cc2ccc(OC)c(OC)c2)cc1OC (centres undefined) | inactive
* COC(=O)c1ccc2c(C(=Nc3ccc(N(C)C(=O)CN4CCN(C)CC4)cc3)c3ccccc3)c(O)[nH]c2c1 | inactive
* O=C(O)C1(Cc2cccc(Nc3nccs3)n2)CCC(Oc2cccc(Cl)c2F)CC1 (centres undefined) | 7.56 µM (active)
* NC1(Cc2ccc(Cl)cc2)CCN(c2ncnc3[nH]ccc23)CC1 | inactive

Returns the measured Potency for the input compound. Input: "COc1c(N2C[C@@H]3CCCN[C@H]3C2)c(F)cc2c(=O)c(C(=O)O)cn(C3CC3)c12" inactive

====

- ASSAY_PROTOCOL: High-throughput drug toxicity screening in the BPDCN cell line Gen2.2 (AID 1224824);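 also: cells exposed to compounds for 48 h before reading; 100% = DMSO and 0% = bortezomib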
- STUDY_CONDITIONS: Gen2.2 BPDCN cells; at 45.8 µM (top of the series) unless noted
I'd be grateful if you could share measured cell viability, % of control (lower = more cytotoxic) for these entries.
Expressed in % [at 23.2 µM], but write only the number.

Name the recorded cell viability, % of control (lower = more cytotoxic) for "Cn1c(CNc2ccc(C(=N)N)cc2)nc2cc(C(=O)N(CCC(=O)O)c3ccccn3)ccc21" . 125

Now give it for "COc1cccc(Nc2c(C(N)=O)cnc3c(C)cc(S(=O)(=O)c4cccc(C(=O)N(C)C)c4)cc23)c1" too. 216

These measurements were taken from PubChem BioAssay (NCATS).
